- targetSystem: mouse HER2 (23-653) (Mus musculus)
- procedureDetails: Surface plasmon resonance (SPR) for assessment of peptide affinity, mouse HER2
- Assay type: binding
- Design: mouse HER2 (23-653) using a Cy5 labeled peptide as a probe; made in house
- recordedConditions: SPR, mouse HER2 extracellular domain, 25° C., 1:1 binding model; read-out: moHER2-SPR-ONC KD
quantityKind: pKd
# reply with the number alone; pKd is -log10 of concentration in mol/L

Output pKd of `CC(=O)NCCCC[C@H]1C(=O)N[C@@H](Cc2c[nH]c3ccc(O)cc23)C(=O)N[C@@H](Cc2c[nH]c3ccccc23)C(=O)N[C@@H]([C@H](C)O)C(=O)N(C)[C@H](C(=O)N(C)[C@@H](Cc2ccc(F)cc2)C(=O)N[C@@H](CCCCNC(=O)N2CCN(CC(=O)O)CC2)C(N)=O)CNC(=O)CC[C@H](NC(=O)CN2CCN(CC(=O)O)CCN(CC(=O)O)CCN(CC(=O)O)CC2)C(=O)N[C@@H](Cc2ccc(O)cc2)C(=O)N[C@@H](CO)C(=O)N(C)[C@@H](CCc2ccccc2)C(=O)N1C`
7.27
